// data source = patent US20250042994A1

- targetSystem: T1, cynomolgus monkey CD19 on peripheral blood B cells (cynomolgus monkey (Macaca fascicularis), UniProt A0A2K5W8L9 20-557)
- T1 construct: whole, on cells; also called cynomolgus monkey B cells
- T1 sequence: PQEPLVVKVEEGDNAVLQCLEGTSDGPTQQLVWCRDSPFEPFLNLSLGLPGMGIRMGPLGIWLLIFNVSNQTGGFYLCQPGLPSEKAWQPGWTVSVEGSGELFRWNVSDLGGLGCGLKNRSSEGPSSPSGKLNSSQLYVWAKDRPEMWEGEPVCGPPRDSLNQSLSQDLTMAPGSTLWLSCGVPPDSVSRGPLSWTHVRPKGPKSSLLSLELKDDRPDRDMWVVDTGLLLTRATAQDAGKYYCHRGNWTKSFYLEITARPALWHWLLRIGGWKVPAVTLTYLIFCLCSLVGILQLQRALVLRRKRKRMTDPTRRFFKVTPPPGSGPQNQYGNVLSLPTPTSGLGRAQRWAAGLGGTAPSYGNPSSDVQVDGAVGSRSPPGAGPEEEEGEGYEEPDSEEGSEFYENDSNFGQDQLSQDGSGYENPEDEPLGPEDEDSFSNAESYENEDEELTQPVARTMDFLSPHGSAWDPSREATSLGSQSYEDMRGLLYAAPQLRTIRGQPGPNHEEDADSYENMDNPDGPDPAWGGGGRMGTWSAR
- protocolDetails: FACS, cynomolgus PBMC, CD20+ B cells
parameter: Proportion of chimeric antibody positive cells to B cells (%) at 100 nM
Only the number, expressed in %, is required.

Recorded Proportion of chimeric antibody positive cells to B cells (%) at 100 nM, per entry:
binder	observedMeasurement
F4.58.6 (antibody, human IgG1, V domains shown, human-murine chimeric antibody, human IgG1) VH: QVQLQQPGAELVKPGASVKLSCKASGYTFTSYWMHWVKQRPGQGLEWIGEIDPSDSYSNYNQKFKGKATLTVDKSSSTAYMQLSSLTSEDSAVYYCARSNYGSSYGYFDVWGAGTTVTVSS VL: QIVLTQSPAIMSASPGEKVTMTCSVSSSLSYMHWYQQKPGTSPKRWIYDTSKLASGVPARFSGSGSGTSYSLTISSMEAEDAATYYCHQRSSYPTFGGGTKLEIK	4
F4.41.1 (antibody, human IgG1, V domains shown, human-murine chimeric antibody, human IgG1) VH: QVQLQQSGAELVRPGTSVKVSCKASGYAFTNYLIEWVKQRPGQGLEWIGVINPGSGDTLYNEKFKGKATLTADKSSTTAYMQLSGLTSDVSAIYFCARSPPITTIVADYFDYWGQGTTLTVSS VL: DIQMTQTTSSLSASLGDRVTISCRASQDISNYLNWYQQKPDGTVKLLIYYTSRLHSGVPSRFSGSGSGADYSLTISNLEQEDIATYFCQQGKTLPYTFGGGTKLEIK	2
F1-mab003 (antibody, human IgG1, V domains shown, human-murine chimeric antibody, human IgG1) VH: EVQLQQSGPELVKPGASVKMSCKASGYTFTDYVMHWVRQTPGQGLEWIGYFNPYNDGTNYNEKFKVKATLTSDKSSTTAYMELSSLTSEDSAVYYCARGVYYYGRDFDYWGQGTTLTVSS VL: DVVLTQTPLSLPVSLGDQASISCRSSQSLENSNGNSYLNWYLQKPGQSPQLLIYRVSNRFSGVLDRFSGSGSGTDFTLKISRVEAEDLGVYFCLQITHVPWTFGGGTKLEIK	59
F2.15.26 (antibody, human IgG1, V domains shown, human-murine chimeric antibody, human IgG1) VH: QVQLKESGPGLVAPSQSLSITCTVSGFSLTDYGVSWIRQSPGKGLEWLGVIWGSGDTYYNSVLESRLSINKDNSKNQVFLKMNSLQTDDAAMYFCAKHSYYGGSFAMDYWGQGTSVTVSS VL: DIQMTQTTSSLSASLGDRVTISCRASQDISNYLNWYQQKPDGTVKLLIYYTSRLHSGVPSRFSGSGSGTDYSLTISNLEQEDIATYFCQQGKTLPWTFGGGTKLEIK	22

Moving on to the next binder.
For this binder ( F3.13.2 (antibody, human IgG1, V domains shown, human-murine chimeric antibody, human IgG1) VH: DVQLQESGPGLMKPSQSLSLTCSVTGYSITSGYYWNWIRQFPGNKLEWMGYISYDGSNNYNPSLKNRFSITRDTSKNQFFLKLNSVTTEDTATYYCARRKLTGGPYFDYWGQGTTLTVSS VL: DIVLTQSPASLAVTLGQRATISCRASESVSFHGFHIMHWYQQKPGQPPKLLIYAASHLVSGVPDRFSGSGSETDFTLNIHPVEEEDAAAYFCQQSVEDPWTFGGGTKLEIK ), measured Proportion of chimeric antibody positive cells to B cells (%) at 100 nM is 8
